Assay: Hemolytic activity in human erythrocytes
Type: toxicity, cell-based, Erythrocyte
ASSAY ENDPOINT: HC50

Q: Give a short answer stating reported HC50 for `CCCCCCN(CCCOc1ccccc1-c1ccccc1OCCCN(CCCCCC)C(=O)[C@@H](N)CCCCN)C(=O)[C@@H](N)CCCCN.Cl.Cl.Cl.Cl` .
Result: > 1000 µg/mL

----------
System: Staphylococcus aureus
Assay: Antimicrobial activity against Staphylococcus aureus assessed as inhibition of growth incubated for 18 hrs by CLSI guidelines based assay
Format: functional
ASSAY ENDPOINT: MIC (µg/mL)
One number for each entry, in µg/mL.

Below: 2 molecules and their reported MIC.
>>> obs_value("CCCCCCCC[N+](C)(C)CCCOc1cc(OCCC[N+](C)(C)CCCCCCCC)cc(OCCC[N+](C)(C)CCCCCCCC)c1.[Br-].[Br-].[Br-]")
2
>>> obs_value("CCCCCC[N+](C)(C)CCCCCOc1cc(OCCCCC[N+](C)(C)CCCCCC)cc(OCCCCC[N+](C)(C)CCCCCC)c1.[Br-].[Br-].[Br-]")
1

Q: Give a short answer stating reported MIC for `C[N+](C)(CCCCOc1cc(OCCCC[N+](C)(C)CCCCc2ccccc2)cc(OCCCC[N+](C)(C)CCCCc2ccccc2)c1)CCCCc1ccccc1.[Br-].[Br-].[Br-]` .
Result: 2

----------
So I've got a bunch of compounds here, and I need their MIC values.
System: Escherichia coli
Assay: Antimicrobial activity against Escherichia coli assessed as inhibition of growth incubated for 18 hrs by CLSI guidelines based assay
Assay type: functional
One number for each entry, in µg/mL.

Below: 2 compounds and their reported MIC.
>>> obs_value("C[N+](C)(CCCCCOc1ccccc1)CCCOc1cc(OCCC[N+](C)(C)CCCCCOc2ccccc2)cc(OCCC[N+](C)(C)CCCCCOc2ccccc2)c1.[Br-].[Br-].[Br-]")
32
>>> obs_value("CCCC[N+](C)(C)CCCCOc1cc(OCCCC[N+](C)(C)CCCC)cc(OCCCC[N+](C)(C)CCCC)c1.[Br-].[Br-].[Br-]")
128

Need MIC for each of these compounds.
1. CCCCCCCC[N+](C)(C)CCCOc1cc(OCCC[N+](C)(C)CCCCCCCC)cc(OCCC[N+](C)(C)CCCCCCCC)c1.[Br-].[Br-].[Br-]
2. CCCCCCCCCCCC[N+](C)(C)CCCOc1cc(OCCC[N+](C)(C)CCCCCCCCCCCC)cc(OCCC[N+](C)(C)CCCCCCCCCCCC)c1.[Br-].[Br-].[Br-]

Result:
1: 4; 2: 32

----------
System: Staphylococcus aureus
Test: Antimicrobial activity against Staphylococcus aureus assessed as inhibition of growth incubated for 18 hrs by CLSI guidelines based assay
Type: functional
Field: label. Allowed values: t (MIC < 1 µg/mL) or f (MIC >= 1 µg/mL).

// below: answered compounds
>>> assigned_class("C[N+](C)(CCCCOc1cc(OCCCC[N+](C)(C)CCCc2ccccc2)cc(OCCCC[N+](C)(C)CCCc2ccccc2)c1)CCCc1ccccc1.[Br-].[Br-].[Br-]")
"f"
>>> assigned_class("CCCCCC[N+](C)(C)CCCCOc1cc(OCCCC[N+](C)(C)CCCCCC)cc(OCCCC[N+](C)(C)CCCCCC)c1.[Br-].[Br-].[Br-]")
"f"

Q: Quick check: MIC of `C[N+](C)(CCCOc1ccccc1)CCCOc1cc(OCCC[N+](C)(C)CCCOc2ccccc2)cc(OCCC[N+](C)(C)CCCOc2ccccc2)c1.[Br-].[Br-].[Br-]` under 1 µg/mL?
Result: f
